Assay: S6 kinase pathway phospho-S6 level changes – cell-based, A549, cytoblot, luminescence, serum-stimulated, primary screen (AID 1158);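 further: serum-stimulated A549 lung adenocarcinoma cells; signal is phosphorylated S6 detected by cytoblot immunostaining with HRP secondary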
Measurement conditions: 5 h, higher = more signal
Would you mind labelling by z-score? At or over -0.2 is Yes, under is No.

-- ask Entry COc1ccc([Si](C)(C)[C@H]2[C@H](CC(=O)N3Cc4ccccc4C[C@H]3CO)O[C@@]3(C(=O)N(C)c4ccccc43)[C@@H]2C)cc1 : is its z-score no less than -0.2?
-- reply Yes

-- ask Entry O=C1N(CCS(=O)(=O)c2ccccc2)c2ccccc2C[C@]12N=C(c1ccc(OCCCO)cc1)O[C@@H]2c1ccccc1 : is its z-score no less than -0.2?
-- reply Yes

====

Test target: Streptavidin (Streptomyces avidinii) (UniProt P22629)
Sequence (P22629 whole entry, looked up): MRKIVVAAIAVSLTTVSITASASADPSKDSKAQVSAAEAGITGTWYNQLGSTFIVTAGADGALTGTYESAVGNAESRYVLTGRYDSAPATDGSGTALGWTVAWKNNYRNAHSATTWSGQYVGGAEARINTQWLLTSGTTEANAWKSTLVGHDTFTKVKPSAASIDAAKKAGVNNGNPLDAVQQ
Assay: compounds binding control protein streptavidin – biophysical, small-molecule microarray, 635/667 nm fluorescence, artefact control for SMM compound annotation, primary screen (AID 1147);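 further: signal reflects streptavidin binding to arrayed compounds as a control protein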
Measurement conditions: higher = more signal
Would you mind sorting the entries by composite z-score according to these classes? lower bin = under -0.3, middle bin = from -0.3 up to 0.6, upper bin = 0.6 and over

C=C(CCCC)/C(=C/C[C@H](OC(=O)c1ccncc1)c1ccc(OCCO)cc1)c1cnc2ccccc2c1	upper bin
CN1C(=O)[C@@H]2[C@@H](CC(COc3ccccc3)=C3[C@@H](CCc4ccccc4)OB(O)C[C@@H]32)C1=O	middle bin
CC1CC/C=C\[C@H]2OC34C=CCN(C(C)(C)C)C(=O)[C@H]3N(CCCO)C(=O)[C@@H]4C2C(=O)O1 (some centres undefined)	lower bin
C=C(CCCC)/C(=C/C[C@H](OC(=O)c1ccncc1)c1cccc(OCCO)c1)c1cnc2ccccc2c1	upper bin
CC(C)N1C(=O)c2ccccc2[C@@H](C(=O)NCC(F)(F)F)[C@@H]1c1ccc(CO)cc1	middle bin
CCCCCC1=C2CNC(Cc3ccccc3)(C(=O)OC)C=C2C(C)C1=O (centres undefined)	middle bin
CN(C)CCCCNC(=O)[C@H]1C[C@H]2C(=O)NCC(=O)N2[C@H]1c1ccc(O)cc1	lower bin
C=C(CCCC)C(=O)CC[C@H](OC(=O)c1ccccc1-c1ccccc1C(=O)O)c1ccc(OCCO)cc1	middle bin

-- ask Band for the recorded composite z-score of CC(C)c1nc2cc(Br)ccc2c(=O)o1 ?
-- reply upper bin

====

Assay: budding yeast growth modifiers under rapamycin – strain BY4716, OD600, 96 h, primary screen (AID 1091); further: test concentration not given here
Measurement conditions: S. cerevisiae BY4716 + rapamycin, higher = more signal, called active from +8 up or from −8 down
Parameter measured: z-score
Returns: the value as a bare number; no unit string appended.

Some solved cases for reference:
Cc1ccc(S[C@]2(C(=O)NC(C)C)CC(=O)N(C3CCCCC3)[C@@H]2c2ccc(CO)cc2I)cc1	2.68
CN(C)CCCC[C@@H]1NC(=O)[C@@H]2C[C@H](C(=O)NCCCCCCNC(=O)CS)[C@H](c3ccc(O)cc3)N2C1=O	0.0236
O=C1[C@@H]2[C@@H](CC(COc3ccccc3)=C([C@H](O)CCc3ccccc3)[C@@H]2CO)C(=O)N1Cc1ccccc1	3.2

-- ask Tell me measured z-score for [N-]=[N+]=NCc1ccccc1[C@@H]1OC(c2ccc(OCCCO)cc2)=N[C@]1(Cc1ccccc1N=[N+]=[N-])C(=O)NCC(O)CO (some centres not stated) please.
-- reply 0.622

-- ask Tell me measured z-score for C=CCC(OC(C)=O)[C@@H]1[C@@H](N(Cc2ccc(-c3cccc(C(F)(F)F)c3)o2)C(=O)c2ccc(-c3ccccc3)cc2)c2cc(OCCCO)ccc2N1C(=O)c1ccc2ccccc2c1 (some centres not stated) please.
-- reply 0.136

-- ask Tell me measured z-score for CCCC=C(CCC)[C@@H](NC(=O)c1ccc(C(F)(F)F)cc1)c1ccc(C(F)(F)F)cc1 please.
-- reply 1.23

-- ask Tell me measured z-score for C=C(COC)/C(=C/C[C@@H](OC(C)=O)c1ccccc1OCCO)c1cnc2ccccc2c1 please.
-- reply -0.112
